Listed molecules paired with reported log10(IC10 values)
System: RAW264.7 cells
Test: MTT cell viability (cytotoxicity) assay
Type: cell-based, mouse
Conditions: 24 h incubation, concentration inhibiting 10% of cell proliferation, improved Karber methodology, defined as highest noncytotoxic concentration
Readout label: log10(IC10 values) (log10 of the value in µM)

Molecule	log10(IC10 values)
COC(=O)/C=C/c1ccc(O)c(O)c1 [Comp. 8, trans-caffeic acid methyl ester]	0.72
COc1cc(C(O)C(CO)C(CO)C(O)c2cc(OC)c(O)c(OC)c2)cc(OC)c1O (stereo not drawn) [Comp. 5]	2.22
O=C1c2c(O)cc(O)cc2O[C@H](c2ccc(O)cc2)[C@H]1O [Comp. 9, dihydrokaempferol]	2.14
COc1cc(O)cc2c1C(=O)O[C@@H](C)CCCCCCC2 [Comp. 2, lasiodiplodin]	2.17
COc1cc([C@H]2OC[C@H]3[C@@H]2CO[C@@H]3c2cc(OC)c(O)c(OC)c2)cc(OC)c1O [Comp. 1, syringaresinol]	1.38
COc1cc(C2c3c(cc(OC)c(O)c3OC)CC(CO)C2CO)cc(OC)c1O (stereo not drawn) [Comp. 6, lyoniresinol]	2.38
CC1CCCCCCCc2cc(O)cc(O)c2C(=O)O1 (stereo not drawn) [Comp. 3, de-O-methyllasiodiplodin]	2.19
Oc1ccc(/C=C/c2cc(O)cc(O)c2)cc1 [Comp. 7, trans-resveratrol]	0.64
COc1cc(C(=O)O)cc(OC)c1O [Comp. 4, syringic acid]	0.71

Data provenance is paper PMC4363603.
